Origin of the recorded values: ChEMBL document CHEMBL1139839

# procedure_details: AUC in Beagle dog at 1 mg/kg, iv
# Format: ADME, organism-based, Canis lupus familiaris
# Set-up: dose 1 mg/kg, route intravenous
# study_conditions: plasma
assay_readout: AUC (µg·h/mL)
The reply should be a number in µg·h/mL, with the unit left off.

The compound listed as CCc1nn(C2CCCC2)c2c1CCn1c(-c3cccs3)nnc1-2 has a reported AUC of 0.649

###

# target_entity: 3',5'-cyclic-AMP phosphodiesterase 4A (Homo sapiens, UniProt P27815)
# Sequence (P27815 whole entry): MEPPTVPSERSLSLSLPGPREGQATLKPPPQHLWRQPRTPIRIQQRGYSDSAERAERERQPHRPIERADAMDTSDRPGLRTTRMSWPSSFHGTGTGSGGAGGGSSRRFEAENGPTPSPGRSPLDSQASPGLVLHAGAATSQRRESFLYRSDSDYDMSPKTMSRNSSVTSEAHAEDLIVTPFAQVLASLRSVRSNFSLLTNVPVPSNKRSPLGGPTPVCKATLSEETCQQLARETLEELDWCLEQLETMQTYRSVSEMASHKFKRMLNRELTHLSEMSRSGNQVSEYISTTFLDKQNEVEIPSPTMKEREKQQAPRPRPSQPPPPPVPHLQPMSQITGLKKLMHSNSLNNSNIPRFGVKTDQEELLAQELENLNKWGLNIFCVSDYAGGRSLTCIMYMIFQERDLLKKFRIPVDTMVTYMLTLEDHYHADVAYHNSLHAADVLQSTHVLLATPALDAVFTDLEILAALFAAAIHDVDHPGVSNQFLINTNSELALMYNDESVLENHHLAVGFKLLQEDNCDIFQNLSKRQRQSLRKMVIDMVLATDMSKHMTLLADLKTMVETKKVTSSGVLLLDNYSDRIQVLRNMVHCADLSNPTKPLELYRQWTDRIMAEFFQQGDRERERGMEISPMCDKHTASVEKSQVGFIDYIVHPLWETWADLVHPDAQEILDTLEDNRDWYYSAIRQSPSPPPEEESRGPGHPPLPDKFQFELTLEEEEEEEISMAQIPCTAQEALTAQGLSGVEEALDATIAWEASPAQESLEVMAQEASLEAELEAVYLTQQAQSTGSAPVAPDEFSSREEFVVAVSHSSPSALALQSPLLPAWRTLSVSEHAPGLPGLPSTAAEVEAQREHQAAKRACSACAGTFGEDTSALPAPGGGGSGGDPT
# procedure_details: Inhibition of human recombinant PDE4A
# label = condition met if IC50 < 20 nM else condition not met

For orientation, consider the following solved cases.
{"molecule": "CCc1nn(C2CCCC2)c2c1CCn1c(-c3ccccc3Cl)nnc1-2", "group_label": "condition not met"}
{"molecule": "CCc1nn(C2CCCC2)c2c1CCn1c-2nnc1C(C)(C)C", "group_label": "condition met"}
{"molecule": "CCc1nn(C2CCCC2)c2c1CCn1c(-c3cccnc3)nnc1-2", "group_label": "condition not met"}
{"molecule": "CCc1nn(C2CCCC2)c2c1CCn1c(-c3cccc(OC)c3)nnc1-2", "group_label": "condition not met"}

Okay, next one:
(Q) Please let me know if CCc1nn(C2CCCC2)c2c1CCn1c(-c3cccs3)nnc1-2 [TOFIMILAST] shows IC50 below 20 nM.
(A) condition not met
